# ASSAY DETAILS: Half life period after 1 hour in Rat liver microsomes at 37 degree C an incubation concentration of 10 uM
# MEASUREMENT CONTEXT: liver microsomes
READOUT TYPE: half-life at 1 h, 10 µM

Problem: Could you tell me which half-life at 1 h, 10 µM is on file for `O=C(CN1CCC(N2C(=O)OCc3c(F)cccc32)CC1)Nc1ccc2[nH]c3ccccc3c2c1` ?
Solution: 19.3 min

###

# ASSAY DETAILS: Metabolic stability after 1 hour in human liver microsomes at 37 degree C an incubation concentration of 10 uM
READOUT TYPE: remaining at 1 h, 10 µM (%)
Express the result in % but write the number alone.

Problem: Entry `O=C(CN1CCC(N2C(=O)OCc3ccc(Cl)cc32)CC1)Nc1ccc2sc3ccccc3c2c1` has what remaining at 1 h, 10 µM?
Solution: 19.6

###

# ASSAY DETAILS: Half life period after 1 hour in human liver microsomes at 37 degree C an incubation concentration of 10 uM
# MEASUREMENT CONTEXT: microsomes
READOUT TYPE: half-life at 1 h, 10 µM (min)
Use min as the unit, but write only the number.

Problem: So what does the record say about half-life at 1 h, 10 µM for `O=C(CN1CCC(N2C(=O)OCc3ccc(Cl)cc32)CC1)Nc1ccc2sc3ccccc3c2c1` ?
Solution: 28.4

###

# ASSAY DETAILS: Half life period after 1 hour in Rat liver microsomes at 37 degree C an incubation concentration of 10 uM
# MEASUREMENT CONTEXT: microsomes
READOUT TYPE: half-life at 1 h, 10 µM (min)
Please give a number only; it is taken to be in min.

Problem: # query: half-life at 1 h, 10 µM of entry `O=C(CN1CCC(N2C(=O)OCc3ccc(Cl)cc32)CC1)Nc1ccc2sc3ccccc3c2c1`
Solution: 32.7

###

# ASSAY DETAILS: Half life period after 1 hour in human liver microsomes at 37 degree C an incubation concentration of 10 uM
# MEASUREMENT CONTEXT: liver microsomes
READOUT TYPE: half-life at 1 h, 10 µM (h)
Lab book: enter the figure in h, no units written.

Problem: Look at this compound and give its reported half-life at 1 h, 10 µM. `O=C(CN1CCC(N2C(=O)OCc3c(F)cccc32)CC1)Nc1ccc2[nH]c3ccccc3c2c1`
Solution: 1.58

###

# ASSAY DETAILS: Metabolic stability after 1 hour in Rat liver microsomes at 37 degree C an incubation concentration of 10 uM
READOUT TYPE: remaining at 1 h, 10 µM
Report field: quantity (unit follows the number).

Problem: Could you share which remaining at 1 h, 10 µM value was measured for `O=C(CN1CCC(N2C(=O)OCc3ccc(Cl)cc32)CC1)Nc1ccc2sc3ccccc3c2c1` ?
Solution: 24%
